Target: μ-receptor (isolated guinea pig ileum, GPI) (Cavia porcellus, UniProt P97266)
Sequence (P97266 whole entry): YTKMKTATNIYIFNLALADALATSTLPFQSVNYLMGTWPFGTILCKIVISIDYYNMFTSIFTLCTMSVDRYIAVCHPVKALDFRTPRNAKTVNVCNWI
Assay: Peripheral opioid activity: inhibition of electrically-induced contractions of isolated guinea pig ileum (GPI)
Conditions: negative logarithm of EC50
Square brackets hold non-standard residues; d marks the D form. Peptide text beside a SMILES is read from it.
reported.endpoint: Value of pD2 (M ± m)

[ask] Look at this molecule and give its reported Value of pD2 (M ± m). C[C@@H](NC(=O)[C@H](Cc1ccccc1)NC(=O)[C@@H](C)NC(=O)[C@@H](N)Cc1ccc(O)cc1)C(=O)N[C@@H](Cc1ccc(O)cc1)C(=O)N1CCC[C@H]1C(=O)N[C@@H](CO)C(N)=O [Compound 49, H-Tyr-D-Ala-Phe-D-Ala-Tyr-Pro-Ser-NH2] (H-Y[dA]F[dA]YPS-NH2)
[reply] 7.55 ± 0.11
